experiment: In vitro plasma protein binding; type: in vitro ADME; details: dog, 0.2 and 1 μM
observed_property: fraction unbound

# input molecule: "CNC(=O)c1cc2c(Oc3ccc(NC(=O)C4(C(=O)Nc5ccc(F)cc5)CC4)cc3)ccnc2cc1OC" ; wanted: its fraction unbound < 0.01

* * *

assay: Phase 1 first-in-human Study Compound 1-001 (NCT03845166): plasma pharmacokinetics; type: in vivo; details: human, plasma, oral, 80 mg, 80 mg Tablet; Steady-State (Day 28); median (min, max); read-out: Tmax
observed_property: Tmax (h)
# unit: h | format: bare number

# input molecule: "CNC(=O)c1cc2c(Oc3ccc(NC(=O)C4(C(=O)Nc5ccc(F)cc5)CC4)cc3)ccnc2cc1OC" ; wanted: its Tmax 3

* * *

experiment: In vitro plasma protein binding; format: in vitro ADME; details: mouse, 0.2 and 1 μM
observed_property: fraction unbound

# input compound: "CNC(=O)c1cc2c(Oc3ccc(NC(=O)C4(C(=O)Nc5ccc(F)cc5)CC4)cc3)ccnc2cc1OC" ; wanted: its fraction unbound < 0.01

* * *

assay: Tablet versus PIB formulation, single oral 20 mg dose, parallel design; assay type: in vivo, dogs; settings: beagle, dog, plasma, oral; 20 mg; both formulations (PIB and tablet); read-out: median tmax
observed_property: Tmax (h)
# unit: h | format: bare number

# input compound: "CNC(=O)c1cc2c(Oc3ccc(NC(=O)C4(C(=O)Nc5ccc(F)cc5)CC4)cc3)ccnc2cc1OC" ; wanted: its Tmax 3

* * *

test: Phase 1 first-in-human Study Compound 1-001 (NCT03845166): plasma pharmacokinetics; type: in vivo; details: human, plasma, oral, 20 mg, 20 mg Tablet; First Dose (Day 1); mean ± SD
observed_property: Cmax
Note: a bare number is incomplete; add the unit.

# input compound: "CNC(=O)c1cc2c(Oc3ccc(NC(=O)C4(C(=O)Nc5ccc(F)cc5)CC4)cc3)ccnc2cc1OC" ; wanted: its Cmax 342 ng/mL

* * *

test: Toxicokinetics in 28-day repeat-dose toxicity study; type: in vivo, dogs; conditions: both sexes, dog, plasma, oral, Day 1
observed_property: half-life

# input compound: CNC(=O)c1cc2c(Oc3ccc(NC(=O)C4(C(=O)Nc5ccc(F)cc5)CC4)cc3)ccnc2cc1OC [Compound 1] ; wanted: its half-life 274 to 377 min

* * *

assay: Tablet versus PIB formulation, single oral 20 mg dose, parallel design; type: in vivo, dogs; details: beagle, dog, plasma, po, 20 mg, 20-mg oral tablet; read-out: t1/2, z (mean) (converted)
observed_property: half-life (h)
# unit: h | format: bare number

# input molecule: "CNC(=O)c1cc2c(Oc3ccc(NC(=O)C4(C(=O)Nc5ccc(F)cc5)CC4)cc3)ccnc2cc1OC" ; wanted: its half-life 5.66

* * *

Target: MER (Homo sapiens, UniProt Q12866)
Sequence (Q12866 21-999): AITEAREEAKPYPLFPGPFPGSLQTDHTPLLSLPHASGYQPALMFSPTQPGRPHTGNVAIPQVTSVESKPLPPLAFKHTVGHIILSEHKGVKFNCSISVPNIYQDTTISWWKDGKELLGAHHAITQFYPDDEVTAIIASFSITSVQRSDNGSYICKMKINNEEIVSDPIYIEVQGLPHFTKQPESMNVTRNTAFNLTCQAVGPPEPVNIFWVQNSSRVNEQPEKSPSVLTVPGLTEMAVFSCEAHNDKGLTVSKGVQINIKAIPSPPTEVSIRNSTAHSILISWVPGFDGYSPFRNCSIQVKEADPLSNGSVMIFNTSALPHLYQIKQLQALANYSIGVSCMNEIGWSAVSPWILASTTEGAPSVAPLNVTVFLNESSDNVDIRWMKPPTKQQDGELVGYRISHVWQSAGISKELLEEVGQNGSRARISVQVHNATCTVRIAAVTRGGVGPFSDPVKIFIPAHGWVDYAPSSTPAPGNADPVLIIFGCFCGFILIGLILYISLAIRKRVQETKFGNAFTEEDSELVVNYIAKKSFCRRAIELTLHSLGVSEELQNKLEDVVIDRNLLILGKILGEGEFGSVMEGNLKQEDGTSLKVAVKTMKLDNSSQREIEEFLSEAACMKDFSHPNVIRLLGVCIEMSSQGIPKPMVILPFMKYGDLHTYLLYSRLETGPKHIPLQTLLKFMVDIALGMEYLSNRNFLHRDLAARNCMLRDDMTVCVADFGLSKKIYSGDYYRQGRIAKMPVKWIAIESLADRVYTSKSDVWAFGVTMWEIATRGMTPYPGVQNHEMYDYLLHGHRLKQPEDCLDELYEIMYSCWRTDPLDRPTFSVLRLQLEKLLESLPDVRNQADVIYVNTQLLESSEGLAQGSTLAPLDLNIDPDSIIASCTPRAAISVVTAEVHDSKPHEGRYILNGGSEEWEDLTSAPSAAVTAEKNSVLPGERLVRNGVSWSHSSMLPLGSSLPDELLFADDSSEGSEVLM
Assay: Kinase catalytic activity assay, radioactive assay platform
Assay type: biochemical
Conditions: 10 μM ATP
Method: Compound 1 inhibitory activity was evaluated in multiple kinase catalytic activity assays using a radioactive assay platform. […] All in vitro biochemical assays were performed at 10 μM ATP concentrations.
observed_property: pIC50
# pIC50: negative log10 of molar concentration; output just the value

# input compound: "CNC(=O)c1cc2c(Oc3ccc(NC(=O)C4(C(=O)Nc5ccc(F)cc5)CC4)cc3)ccnc2cc1OC" ; wanted: its pIC50 9.22
